What MIC was measured for each of the following?
- Test system: S. aureus 133
- test: MIC determination, broth microdilution (CLSI)
- Type: cell-based
- measurement setup: Staphylococcus aureus, 133, strain 11; read-out: strain 11 MIC
Answers are plain numbers, in µg/mL.

Dear colleague, could you please provide MIC for the compounds listed below?
1. C[C@H]1[C@H](NC(=O)/C(=N\OCCOCc2cc(C(=N)N)cs2)c2csc(N)n2)C(=O)N1S(=O)(=O)O
2. C[C@H]1[C@H](NC(=O)/C(=N\OCCOc2ccc(C(=N)N)cc2)c2csc(N)n2)C(=O)N1OCS(=O)(=O)O
3. C[C@H]1[C@H](NC(=O)/C(=N\OCCOc2ccc(NC(=N)N)cc2)c2csc(N)n2)C(=O)N1S(=O)(=O)O
4. C[C@H]1[C@H](NC(=O)/C(=N\OCCOc2cc(C(=N)N)n(C)n2)c2csc(N)n2)C(=O)N1S(=O)(=O)O
5. C[C@H]1[C@H](NC(=O)/C(=N\OC(C)(C)COc2ccc(C(=N)N)cc2)c2csc(N)n2)C(=O)N1S(=O)(=O)O
6. C[C@H]1[C@H](NC(=O)/C(=N\OCCOc2ccc(C(=N)N)cc2Cl)c2csc(N)n2)C(=O)N1S(=O)(=O)O

Ans.
1: 1; 2: 0.125; 3: 0.125; 4: 0.25; 5: 0.25; 6: 0.125

Qu. Give MIC for C[C@H]1[C@H](NC(=O)/C(=N\OCCOc2ccc(C(=N)N)cc2N)c2csc(N)n2)C(=O)N1S(=O)(=O)O
Ans. 0.25

* * *

- Tested on: C. perfringens DSM756
- test: microbe, parasite or virus in culture
- Format: cell-based
- measurement setup: strain 16
reported metric: strain 16 MIC (µg/mL)
Give bare numbers, in µg/mL.

// known answers, use as guide
* CC1(C)[C@H](NC(=O)/C(=N\OC(COc2ccc(C(=N)N)cc2)C(=O)O)c2csc(N)n2)C(=O)N1OS(=O)(=O)O (mixture of isomers) [Example 27B] | 32
* CC1(C)[C@H](NC(=O)/C(=N\OC(COc2ccc(C(=N)N)nc2)C(=O)O)c2csc(N)n2)C(=O)N1OS(=O)(=O)O (mixture of isomers) [Example 36B] | 32
* CC1(C)[C@H](NC(=O)/C(=N\OC(COc2ccc(C(=N)N)nc2)C(=O)O)c2csc(N)n2)C(=O)N1OS(=O)(=O)O (mixture of isomers) [Example 36A] | 2
* CC1(C)[C@H](NC(=O)/C(=N\OC(COc2ccc(C(=N)N)c(O)c2)C(=O)O)c2csc(N)n2)C(=O)N1OS(=O)(=O)O (mixture of isomers) [Example 34A] | 2
* CC1(C)[C@H](NC(=O)/C(=N\OC(COc2ccc(C(=N)N)c(O)c2)C(=O)O)c2csc(N)n2)C(=O)N1OS(=O)(=O)O (mixture of isomers) [Example 34B] | 32

Shifting focus to the compound that follows.
Qu. Give strain 16 MIC for CC1(C)[C@H](NC(=O)/C(=N\OC(COc2ccc(C(=N)N)cc2)C(=O)O)c2csc(N)n2)C(=O)N1OS(=O)(=O)O (mixture of isomers) [Example 27A]
Ans. 4

* * *

- Tested on: strain 21
- test: MIC determination, broth microdilution (CLSI)
- Type: cell-based
What MIC was measured for each of the following?
Numbers only, in µg/mL.

• C[C@H]1[C@H](NC(=O)/C(=N\OCCOc2ccc(C(=N)N)cn2)c2csc(N)n2)C(=O)N1S(=O)(=O)O = 0.25
• C[C@@H]1[C@H](NC(=O)/C(=N\OCCOc2ccc(C(=N)N)cc2)c2csc(N)n2)C(=O)N1S(=O)(=O)O = 0.25
• CC1(C)[C@H](NC(=O)/C(=N\OCCSc2ccc(C(=N)N)cc2)c2csc(N)n2)C(=O)N1OS(=O)(=O)O = 1

Dear colleague, could you please provide MIC for the molecules listed below?
1. N=C(N)c1ccc(OCCO/N=C(\C(=O)NC2C(=O)N(OS(=O)(=O)O)C23CCCC3)c2csc(N)n2)cc1 (stereo not shown)
2. C[C@H]1[C@H](NC(=O)/C(=N\OC(C)(C)COc2ccc(C(=N)N)cc2)c2csc(N)n2)C(=O)N1S(=O)(=O)O
3. C[C@H]1[C@H](NC(=O)/C(=N\OCCSc2ccc(C(=N)N)cc2)c2csc(N)n2)C(=O)N1S(=O)(=O)O
4. C[C@H]1[C@H](NC(=O)/C(=N\OCCOc2nc(C(=N)N)cs2)c2csc(N)n2)C(=O)N1S(=O)(=O)O

Ans.
1: 1; 2: 2; 3: 0.25; 4: 0.25

* * *

- Tested on: strain 21
- test: MIC determination, broth microdilution (CLSI)
- Assay type: cell-based
reported metric: MIC (mg/L)
Answers are plain numbers, in mg/L.

// known answers, use as guide
• C[C@@H]1[C@H](NC(=O)/C(=N\OCCOc2ccc(C(=N)N)cc2)c2csc(N)n2)C(=O)N1OS(=O)(=O)O = 0.5
• C[C@H]1[C@H](NC(=O)/C(=N\OCC(C)(C)Oc2ccc(C(=N)N)cc2)c2csc(N)n2)C(=O)N1S(=O)(=O)O = 2
• C[C@H]1[C@H](NC(=O)/C(=N\OCCOc2ccc(C(=N)NO)cc2)c2csc(N)n2)C(=O)N1S(=O)(=O)O = 1
• C[C@H]1[C@H](NC(=O)/C(=N\OCCOc2ccc(C(=N)N)cc2)c2csc(N)n2)C(=O)N1OCS(=O)(=O)O = 0.25
• C[C@H]1[C@H](NC(=O)/C(=N\OCCOc2ccc(C(=N)N)c(O)c2)c2csc(N)n2)C(=O)N1S(=O)(=O)O = 0.25

Dear colleague, could you please provide MIC for the molecules listed below?
1. C[C@H]1[C@H](NC(=O)/C(=N\OCCOc2ccc(C(=N)N)nn2)c2csc(N)n2)C(=O)N1S(=O)(=O)O
2. C[C@H]1[C@H](NC(=O)/C(=N\OCCOc2ccc(C(=N)N)nc2)c2csc(N)n2)C(=O)N1S(=O)(=O)O

Ans.
1: 0.25; 2: 0.25

* * *

What strain 3 MIC was measured for each of the following?
- Tested on: E. cloacae 34654
- test: MIC determination, broth microdilution (CLSI)
- Format: cell-based
- measurement setup: strain 3
Numbers only, in µg/mL.

* CC1(C)[C@H](NC(=O)/C(=N\O[C@@H](COc2ccc(C(=N)NC3CC3N)cc2)C(=O)O)c2csc(N)n2)C(=O)N1OS(=O)(=O)O (single isomer, unassigned) [Example 100A] | 0.125

Dear colleague, could you please provide strain 3 MIC for the compounds listed below?
1. CC1(C)[C@H](NC(=O)/C(=N\OC(COc2ccc(C(=N)NCCN)cc2)C(=O)O)c2csc(N)n2)C(=O)N1OS(=O)(=O)O (mixture of isomers) [Example 44B]
2. CC1(C)[C@H](NC(=O)/C(=N\OC(CCO)COc2ccc(C(=N)N)cc2)c2csc(N)n2)C(=O)N1OS(=O)(=O)O (single isomer, unassigned) [Example 81B]

Ans.
1: 4; 2: 4

Dear colleague, could you please provide strain 3 MIC for the compounds listed below?
1. CC1(C)[C@H](NC(=O)/C(=N\OC(COc2ccc(C(=N)N)cc2)C(=O)O)c2csc(N)n2)C(=O)N1OS(=O)(=O)O (mixture of isomers) [Example 27A]
2. CC1(C)[C@H](NC(=O)/C(=N\O[C@@H](COc2ccc(C(=N)NC3CC3N)cc2)C(=O)O)c2csc(N)n2)C(=O)N1OS(=O)(=O)O (single isomer, unassigned) [Example 100B]

Ans.
0.25
4

* * *

- Tested on: S. pneumoniae 113
- test: MIC determination, broth microdilution (CLSI)
- Assay type: cell-based
- measurement setup: Streptococcus pneumoniae, 113, strain 13; broth microdilution; read-out: MIC strain 13 (S. pneumoniae 113)
What MIC was measured for each of the following?
Numbers only, in µg/mL.

- CN(C)C(=O)[C@@H]1C[C@H](NC(=N)c2ccc(OCCO/N=C(\C(=O)N[C@@H]3C(=O)N(OS(=O)(=O)O)C3(C)C)c3csc(N)n3)cc2)CN1: 0.125
- CC1(C)[C@H](NC(=O)/C(=N\O[C@@H](COc2ccc(C(=N)NC3CC3N)cc2)C(=O)O)c2csc(N)n2)C(=O)N1OS(=O)(=O)O (single isomer, unassigned) [Example 100A]: 0.5
- C[C@H]1[C@H](NC(=O)/C(=N\OCCOc2ccc(C(=N)N)cc2Br)c2csc(N)n2)C(=O)N1S(=O)(=O)O: 0.5
- CC1(C)[C@H](NC(=O)/C(=N\O[C@@H](COc2ccc(C(=N)NCC3CCCCN3)cc2)C(=O)O)c2csc(N)n2)C(=O)N1OS(=O)(=O)O (stereo partly drawn): 0.5

Dear colleague, could you please provide MIC for the compounds listed below?
1. CC1(C)[C@H](NC(=O)/C(=N\O[C@H](COc2ccc(C(=N)NCCNc3ncccn3)cc2)C(=O)O)c2csc(N)n2)C(=O)N1OS(=O)(=O)O
2. C[C@H]1[C@H](NC(=O)/C(=N\OCCOCc2cc(C(=N)N)cs2)c2csc(N)n2)C(=O)N1S(=O)(=O)O
3. CC1(C)[C@H](NC(=O)/C(=N\O[C@@H](COc2ccc(C(=N)NC3CCNCC3)cc2)C(=O)O)c2csc(N)n2)C(=O)N1OS(=O)(=O)O

Ans.
2
4
0.5
